Test system: Serine/threonine-protein kinase B-raf (Homo sapiens), P15056 [V600E]
Sequence (P15056 whole entry V600E): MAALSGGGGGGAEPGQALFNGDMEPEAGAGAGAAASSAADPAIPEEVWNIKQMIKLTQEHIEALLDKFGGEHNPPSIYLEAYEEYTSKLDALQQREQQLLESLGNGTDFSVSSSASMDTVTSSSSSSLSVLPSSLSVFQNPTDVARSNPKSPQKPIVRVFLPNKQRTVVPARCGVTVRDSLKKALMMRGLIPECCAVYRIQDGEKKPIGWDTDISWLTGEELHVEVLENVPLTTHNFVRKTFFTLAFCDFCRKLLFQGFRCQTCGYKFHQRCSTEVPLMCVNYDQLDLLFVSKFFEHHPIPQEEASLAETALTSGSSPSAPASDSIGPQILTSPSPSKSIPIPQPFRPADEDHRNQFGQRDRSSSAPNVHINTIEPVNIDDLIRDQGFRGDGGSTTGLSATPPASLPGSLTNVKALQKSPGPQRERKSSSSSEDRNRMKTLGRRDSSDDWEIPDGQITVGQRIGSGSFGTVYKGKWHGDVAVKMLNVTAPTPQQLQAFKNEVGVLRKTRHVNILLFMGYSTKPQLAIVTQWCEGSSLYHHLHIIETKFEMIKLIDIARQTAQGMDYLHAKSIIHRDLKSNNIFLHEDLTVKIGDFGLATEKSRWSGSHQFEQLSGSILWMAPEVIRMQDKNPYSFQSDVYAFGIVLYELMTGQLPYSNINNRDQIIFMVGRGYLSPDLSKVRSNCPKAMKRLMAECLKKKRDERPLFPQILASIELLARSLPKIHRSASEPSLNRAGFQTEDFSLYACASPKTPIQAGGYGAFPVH
Test: Inhibition of BRAF V600E mutant at 1 uM by ELISA
# label = MET if inhibition >= 50% else NOT MET

{"smilesRecord": "Cc1ccc(N2C(=O)/C(=C\\c3ccc(CN(CCC#N)S(C)(=O)=O)o3)C(=O)NC2=S)cc1", "labelValue": "NOT MET"}
{"smilesRecord": "COc1ccc(C=C2C(=O)NC(=S)NC2=O)cc1OC(=O)c1ccc(C)cc1", "labelValue": "NOT MET"}
{"smilesRecord": "CCCS(=O)(=O)Nc1ccc(F)c(C(=O)c2c[nH]c3ncc(-c4ccc(Cl)cc4)cc23)c1F", "labelValue": "MET"}
{"smilesRecord": "COc1ccc(C=C2C(=O)NC(=S)NC2=O)cc1OC(=O)c1ccccc1", "labelValue": "NOT MET"}
{"smilesRecord": "COc1cc(C=C2C(=O)NC(=S)NC2=O)ccc1OCCC(C)C", "labelValue": "NOT MET"}
{"smilesRecord": "COc1cc(C=C2C(=O)NC(=S)NC2=O)ccc1OC(F)F", "labelValue": "NOT MET"}
{"smilesRecord": "Cc1ccc(N2C(=O)/C(=C\\c3ccc(-c4ccc(Cl)c(C(=O)O)c4)o3)C(=O)NC2=S)cc1", "labelValue": "NOT MET"}
{"smilesRecord": "COC(=O)c1cc(Br)ccc1-c1ccc(C=C2C(=O)NC(=S)NC2=O)o1", "labelValue": "MET"}
{"smilesRecord": "Cc1ccc(N2C(=O)/C(=C\\c3ccc(CN(CCC#N)S(C)(=O)=O)o3)C(=O)NC2=S)cc1Cl", "labelValue": "MET"}

====

Measured inhibition, listed per entry for reference.
System: Serine/threonine-protein kinase B-raf (Homo sapiens), P15056 [V600E]
Experiment: Inhibition of BRAF V600E mutant at 10 uM by ELISA

{"smilesRecord": "Cc1ccc(N2C(=O)/C(=C\\c3ccc(CN(CCC#N)S(C)(=O)=O)o3)C(=O)NC2=S)cc1Cl", "measuredOn": "Serine/threonine-protein kinase B-raf (Homo sapiens), P15056 [V600E]", "valueUnits": "%", "inhibition": 99}
{"smilesRecord": "COc1cc(C=C2C(=O)NC(=S)NC2=O)ccc1OC(=O)c1cccc(F)c1", "measuredOn": "Serine/threonine-protein kinase B-raf (Homo sapiens), P15056 [V600E]", "valueUnits": "%", "inhibition": 28}
{"smilesRecord": "COc1ccc(C=C2C(=O)NC(=S)NC2=O)cc1OC(=O)c1ccc(C)cc1", "measuredOn": "Serine/threonine-protein kinase B-raf (Homo sapiens), P15056 [V600E]", "valueUnits": "%", "inhibition": 38}
{"smilesRecord": "O=C1NC(=S)NC(=O)C1=Cc1ccc(-c2ccc([N+](=O)[O-])cc2)o1", "measuredOn": "Serine/threonine-protein kinase B-raf (Homo sapiens), P15056 [V600E]", "valueUnits": "%", "inhibition": 91}
{"smilesRecord": "CCOc1cc(C=C2C(=O)NC(=S)NC2=O)ccc1OCC(=O)Nc1cccc(C)c1", "measuredOn": "Serine/threonine-protein kinase B-raf (Homo sapiens), P15056 [V600E]", "valueUnits": "%", "inhibition": 81}

====

Measured inhibition, listed per entry for reference.
System: Serine/threonine-protein kinase B-raf (Homo sapiens), P15056 [V600E]
Experiment: Inhibition of BRAF V600E mutant at 10 uM by ELISA

{"smilesRecord": "COc1cc(C=C2C(=O)NC(=S)NC2=O)ccc1OCCO", "inhibition / %": 34}
{"smilesRecord": "O=C1NC(=S)N(c2cccc(Cl)c2Cl)C(=O)/C1=C\\c1ccc(-c2ccc(C(=O)O)cc2)o1", "inhibition / %": 100}
{"smilesRecord": "Cc1ccc(Cl)cc1-c1ccc(C=C2C(=O)NC(=S)NC2=O)o1", "inhibition / %": 75}
{"smilesRecord": "CCOc1ccc(N2C(=O)/C(=C\\c3ccc(CN(CCC#N)S(C)(=O)=O)o3)C(=O)NC2=S)cc1", "inhibition / %": 91}
{"smilesRecord": "COc1ccc(C=C2C(=O)NC(=S)NC2=O)cc1OCc1ccc(Br)cc1", "inhibition / %": 87}
{"smilesRecord": "CC(C)COC(=O)c1ccc(-c2ccc(C=C3C(=O)NC(=S)NC3=O)o2)cc1", "inhibition / %": 37}
{"smilesRecord": "O=C1NC(=S)NC(=O)C1=Cc1ccc(-c2ccccc2[N+](=O)[O-])o1", "inhibition / %": 93}
{"smilesRecord": "O=C1NC(=S)NC(=O)C1=Cc1ccc(OCC(=O)N2CCCC2)cc1", "inhibition / %": 52}
{"smilesRecord": "COc1cc(C=C2C(=O)NC(=S)NC2=O)ccc1OCCC(C)C", "inhibition / %": 81}
{"smilesRecord": "Cc1ccc(N2C(=O)/C(=C\\c3ccc(-c4ccc(Cl)c(C(=O)O)c4)o3)C(=O)NC2=S)cc1", "inhibition / %": 71}
{"smilesRecord": "O=C1NC(=S)NC(=O)C1=Cc1ccc(Oc2ccc([N+](=O)[O-])cn2)cc1", "inhibition / %": 41}
{"smilesRecord": "COC(=O)c1ccccc1-c1ccc(/C=C2/C(=O)NC(=S)N(c3ccc(C)cc3)C2=O)o1", "inhibition / %": 88}
{"smilesRecord": "CCOc1cc(C=C2C(=O)NC(=S)NC2=O)ccc1O", "inhibition / %": 68}
{"smilesRecord": "COc1ccc(C=C2C(=O)NC(=S)NC2=O)cc1OC(=O)c1ccccc1", "inhibition / %": 77}
{"smilesRecord": "O=C1NC(=S)N(c2ccc(Br)cc2)C(=O)/C1=C\\c1ccc(-c2ccc(C(=O)O)c(Cl)c2)o1", "inhibition / %": 89}
{"smilesRecord": "O=C1NC(=S)N(c2ccc(Br)cc2)C(=O)/C1=C\\c1ccc(-c2ccc(C(=O)O)cc2)o1", "inhibition / %": 97}
{"smilesRecord": "COc1cccc(N2C(=O)/C(=C\\c3ccc(CN(CCC#N)S(C)(=O)=O)o3)C(=O)NC2=S)c1", "inhibition / %": 74}
{"smilesRecord": "O=C1NC(=S)NC(=O)C1=Cc1ccc(-c2cccc([N+](=O)[O-])c2)o1", "inhibition / %": 85}
{"smilesRecord": "Cc1ccc([N+](=O)[O-])cc1-c1ccc(C=C2C(=O)NC(=S)NC2=O)o1", "inhibition / %": 57}
{"smilesRecord": "Cc1cccc(C)c1OCCOc1ccc(C=C2C(=O)NC(=S)NC2=O)cc1", "inhibition / %": 95}
